Where do the numbers come from? From patent US10442866.

# pKd annotations
Molecular target: T1, recombinant human OX40-his (Sino Biological, Cat#:10481-H03H) (human, UniProt P43489 29-214)
T1 construct: bought protein; also called hOX40-his; not shown: His tag
T1 sequence: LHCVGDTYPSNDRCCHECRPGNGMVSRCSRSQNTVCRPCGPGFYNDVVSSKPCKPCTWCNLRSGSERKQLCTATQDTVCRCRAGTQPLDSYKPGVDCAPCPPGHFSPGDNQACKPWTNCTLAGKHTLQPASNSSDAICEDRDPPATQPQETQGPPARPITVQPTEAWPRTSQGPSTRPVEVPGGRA
Experiment: SPR Biacore 8K, OX40-His on chip, antibody injected
Reminder that pKd means the negative base-10 logarithm of the concentration expressed in mol/L.

{"columns": ["BINDER", "pKd"],
 "data": [
  ["71H8-VH3VL2 (antibody, human IgG1, kappa, V domains shown, humanized; also called 71H8-H3L2) VH: QVQLVQSGAEVKKPGASVKVSCKVSGYTFTSYWITWVRQRPGQGLEWIGDIYPGSGSTNQNEKFKSRVTLTVDTSTDTAYMELSSLRSEDTAVYYCATLRPYYFVYWGQGTLVTVSS VL: DIQMTQSPSSLSASVGDRVTITCRASQDISNYLNWYQQKPGKTPKLLIYYTSRLLSGVPSRFSGSGSGTDYTLTISSLQPEDFATYYCQQGNTLPLTFGQGTRLEIKR", 7.43]
]}

API: the following record is the query input.
Recorded pKd for 71H8-VH2VL3 (antibody, human IgG1, kappa, V domains shown, humanized; also called 71H8-H2L3; 71H8H2L3) VH: QVQLVQSGAEVKKPGASVKVSCKVSGYTFTSYWITWVRQRPGKGLEWMGDIYPGSGSTNQNEKFKSRVTMTVDTSTDTAYMELSSLRSEDTAVYYCATLRPYYFVYWGQGTLVTVSS VL: DIQMTQSPSSLSASVGDRVTITCRASQDISNYLNWYQQKPGKTVKLLIYYTSRLLSGVPSRFSGSGSGTDYTLTISSLQPEDFATYFCQQGNTLPLTFGQGTRLEIKR , please?
8.34
